system: 496974-208-R-J2-PDC complex spheroids, growth % test/control; assay: Anticancer human tumor 496974-208-R-J2-PDC patient-derived pancreatic carcinoma cell line growth inhibition [CLK]; conditions: second compound 0.0316 µM; first compound 0.3 µM; stronger effect = lower value
assay.endpoint: viability, T/C (%)
Give the value in % but do not write % after it.

Examples from the recorded data:
{"columns": ["compound", "assay.result"],
 "data": [
  ["NC(=O)C(=Cn1cnc(-c2cc(C(F)(F)F)cc(C(F)(F)F)c2)n1)c1cncnc1 + CN1CCN(c2cc(C(=O)Nc3cc4cc(-c5cnn(C)c5)ccc4cn3)ccn2)CC1", 21.3],
  ["CC(C)CC(NC(=O)C(Cc1ccccc1)NC(=O)c1cnccn1)B(O)O (stereo not given) + CN1CCN(c2cc(C(=O)Nc3cc4cc(-c5cnn(C)c5)ccc4cn3)ccn2)CC1", 2.04],
  ["C=CC(=O)Nc1cc(Nc2nccc(-c3cn(C)c4ccccc34)n2)c(OC)cc1N(C)CCN(C)C + CNC(=O)c1ccc(Nc2nc(OC3CCCC3)c3c(-c4ccc5nc(C)oc5c4)c[nH]c3n2)c(OC)c1", 71.7],
  ["C=CC(=O)Nc1cc(Nc2nccc(-c3cn(C)c4ccccc34)n2)c(OC)cc1N(C)CCN(C)C + CN1CCN(c2cc(C(=O)Nc3cc4cc(-c5cnn(C)c5)ccc4cn3)ccn2)CC1", 60.6]
]}

Switching to the query record.
Q) So what's the measured viability, T/C for this one? NC(=O)C(=Cn1cnc(-c2cc(C(F)(F)F)cc(C(F)(F)F)c2)n1)c1cncnc1 + CNC(=O)c1ccc(Nc2nc(OC3CCCC3)c3c(-c4ccc5nc(C)oc5c4)c[nH]c3n2)c(OC)c1
A) 31.4

---

test system: 496974-208-R-J2-PDC complex spheroids, growth % test/control; assay: Anticancer human tumor 496974-208-R-J2-PDC cell line growth inhibition [CLK]; conditions: second compound 10 µM; first compound 0.1 µM; active = viability on the fitted dose curve at most 10% of control; inactive = the rest;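 note: spheroids exposed to the drugs for 7 days before readout; 100% = DMSO vehicle control wells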
// one of active, inactive, no free text

{"columns": ["compound", "study.target", "label"],
 "data": [
  ["Nc1ccn(C2OC(CO)C(O)C2(F)F)c(=O)n1 (stereo not drawn) + CNC(=O)c1ccc(Nc2nc(OC3CCCC3)c3c(-c4ccc5nc(C)oc5c4)c[nH]c3n2)c(OC)c1", "496974-208-R-J2-PDC complex spheroids, growth % test/control", "inactive"],
  ["CC(=O)O[C@H]1C(=O)[C@@]2(C)[C@H]([C@H](OC(=O)c3ccccc3)[C@]3(O)C[C@H](OC(=O)[C@H](O)[C@@H](NC(=O)c4ccccc4)c4ccccc4)C(C)=C1C3(C)C)[C@]1(OC(C)=O)CO[C@@H]1C[C@@H]2O + CN1CCN(c2cc(C(=O)Nc3cc4cc(-c5cnn(C)c5)ccc4cn3)ccn2)CC1", "496974-208-R-J2-PDC complex spheroids, growth % test/control", "active"]
]}

Next item in the queue.
Q) Would you mind telling me which call this test gave CC(Nc1ccc2c(c1)OCCn1cc(N3C(=O)OCC3C(F)F)nc1-2)C(N)=O (stereo not drawn) + CNC(=O)c1ccc(Nc2nc(OC3CCCC3)c3c(-c4ccc5nc(C)oc5c4)c[nH]c3n2)c(OC)c1 ?
A) inactive

---

System: 496974-208-R-J2-PDC complex spheroids, growth % test/control
Test: Anticancer human tumor 496974-208-R-J2-PDC cell line growth inhibition [CLK];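 note: spheroids exposed to the drugs for 7 days before readout; 100% = DMSO vehicle control wells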
Conditions: second compound 0.0316 µM; first compound 3.16 µM; stronger effect = lower value
Description: A high-throughput screen of multi-cell type tumor spheroids was designed to identify active combinations of […] and targeted small molecules. Complex spheroids include a stromal component modeled by human endothelial cells (HUVEC) and fibroblasts modeled by human mesenchymal stem cells (MSCs). […] Compounds. […] If the clinical Cmax for an agent had not been determined, the highest concentration tested was 10 microM. […]
Could you please classify the records by viability, T/C using these ranges: bottom range = under 60%, center range = from 60% up to 80%, top range = 80% and over

{"columns": ["compound", "label"],
 "data": [
  ["CC(Nc1ccc2c(c1)OCCn1cc(N3C(=O)OCC3C(F)F)nc1-2)C(N)=O (centres undefined) + CN1CCN(c2cc(C(=O)Nc3cc4cc(-c5cnn(C)c5)ccc4cn3)ccn2)CC1", "bottom range"],
  ["CC1COCCN1c1cc(C2(S(C)(=N)=O)CC2)nc(-c2ccnc3[nH]ccc23)n1 (centres undefined) + CNC(=O)c1ccc(Nc2nc(OC3CCCC3)c3c(-c4ccc5nc(C)oc5c4)c[nH]c3n2)c(OC)c1", "center range"],
  ["CC(=O)O[C@H]1C(=O)[C@@]2(C)[C@H]([C@H](OC(=O)c3ccccc3)[C@]3(O)C[C@H](OC(=O)[C@H](O)[C@@H](NC(=O)c4ccccc4)c4ccccc4)C(C)=C1C3(C)C)[C@]1(OC(C)=O)CO[C@@H]1C[C@@H]2O + CN1CCN(c2cc(C(=O)Nc3cc4cc(-c5cnn(C)c5)ccc4cn3)ccn2)CC1", "bottom range"],
  ["CC(Nc1ccc2c(c1)OCCn1cc(N3C(=O)OCC3C(F)F)nc1-2)C(N)=O (centres undefined) + CNC(=O)c1ccc(Nc2nc(OC3CCCC3)c3c(-c4ccc5nc(C)oc5c4)c[nH]c3n2)c(OC)c1", "bottom range"],
  ["O=c1[nH]cc(F)c(=O)[nH]1 + CNC(=O)c1ccc(Nc2nc(OC3CCCC3)c3c(-c4ccc5nc(C)oc5c4)c[nH]c3n2)c(OC)c1", "center range"],
  ["Nc1ccccc1NC(=O)c1ccc(CNC(=O)OCc2cccnc2)cc1 + CNC(=O)c1ccc(Nc2nc(OC3CCCC3)c3c(-c4ccc5nc(C)oc5c4)c[nH]c3n2)c(OC)c1", "center range"],
  ["CCCS(=O)(=O)Nc1ccc(F)c(C(=O)c2c[nH]c3ncc(-c4ccc(Cl)cc4)cc23)c1F + CN1CCN(c2cc(C(=O)Nc3cc4cc(-c5cnn(C)c5)ccc4cn3)ccn2)CC1", "top range"],
  ["COc1ccc([C@@H](O)c2cc(-c3ncnc4cc(N5CCOCC5)ccc34)c(F)cc2Cl)nn1 + CN1CCN(c2cc(C(=O)Nc3cc4cc(-c5cnn(C)c5)ccc4cn3)ccn2)CC1", "center range"],
  ["C=CC(=O)N1CCN(c2nc(=O)n(-c3c(C)ccnc3C(C)C)c3nc(-c4c(O)cccc4F)c(F)cc23)C(C)C1 (centres undefined) + CN1CCN(c2cc(C(=O)Nc3cc4cc(-c5cnn(C)c5)ccc4cn3)ccn2)CC1", "top range"],
  ["C#Cc1c(F)ccc2cc(O)cc(-c3ncc4c(N5CC6CCC(C5)N6)nc(OCC56CCCN5CC(F)C6)nc4c3F)c12 (centres undefined) + CNC(=O)c1ccc(Nc2nc(OC3CCCC3)c3c(-c4ccc5nc(C)oc5c4)c[nH]c3n2)c(OC)c1", "bottom range"]
]}

Q) Place this compound in its band: COC1C=CCC(C)C(C)S(=O)(=O)NC(=O)c2ccc3c(c2)N(CC2CCC21)CC1(CCCc2cc(Cl)ccc21)CO3 (centres undefined) + CN1CCN(c2cc(C(=O)Nc3cc4cc(-c5cnn(C)c5)ccc4cn3)ccn2)CC1
A) center range

Q) For this compound, which bin applies? COc1cccc2c1C(=O)c1c(O)c3c(c(O)c1C2=O)CC(O)(C(=O)CO)CC3OC1CC(N)C(O)C(C)O1 (centres undefined) + CN1CCN(c2cc(C(=O)Nc3cc4cc(-c5cnn(C)c5)ccc4cn3)ccn2)CC1
A) bottom range

Q) Category of CC1(C)CCC(CN2CCN(c3ccc(C(=O)NS(=O)(=O)c4ccc(NCC5CCOCC5)c([N+](=O)[O-])c4)c(Oc4cnc5[nH]ccc5c4)c3)CC2)=C(c2ccc(Cl)cc2)C1 + CNC(=O)c1ccc(Nc2nc(OC3CCCC3)c3c(-c4ccc5nc(C)oc5c4)c[nH]c3n2)c(OC)c1 :
A) top range

Q) Using the reported viability, T/C, which band applies to Nc1ccccc1NC(=O)c1ccc(CNC(=O)OCc2cccnc2)cc1 + CN1CCN(c2cc(C(=O)Nc3cc4cc(-c5cnn(C)c5)ccc4cn3)ccn2)CC1 ?
A) center range

Q) Band for C=C(F)C(=O)N1CCN(c2nc(OCC3CCCN3C)nc3c2CCN(c2cccc4cccc(Cl)c24)C3)CC1CC#N (centres undefined) + CNC(=O)c1ccc(Nc2nc(OC3CCCC3)c3c(-c4ccc5nc(C)oc5c4)c[nH]c3n2)c(OC)c1 ?
A) top range

Q) The entry to classify is COc1cccc2c1C(=O)c1c(O)c3c(c(O)c1C2=O)CC(O)(C(=O)CO)CC3OC1CC(N)C(O)C(C)O1 (centres undefined) + CNC(=O)c1ccc(Nc2nc(OC3CCCC3)c3c(-c4ccc5nc(C)oc5c4)c[nH]c3n2)c(OC)c1 ; which class holds it?
A) bottom range

Q) Kindly identify the class of COC1C=CCC(C)C(C)S(=O)(=O)NC(=O)c2ccc3c(c2)N(CC2CCC21)CC1(CCCc2cc(Cl)ccc21)CO3 (centres undefined) + CNC(=O)c1ccc(Nc2nc(OC3CCCC3)c3c(-c4ccc5nc(C)oc5c4)c[nH]c3n2)c(OC)c1 .
A) center range

Q) Sort COc1ccc([C@@H](O)c2cc(-c3ncnc4cc(N5CCOCC5)ccc34)c(F)cc2Cl)nn1 + CNC(=O)c1ccc(Nc2nc(OC3CCCC3)c3c(-c4ccc5nc(C)oc5c4)c[nH]c3n2)c(OC)c1 into one of the categories.
A) center range
